Tested on: Trypanosoma brucei brucei
test.summary: Resistance factor, ratio of IC50 for TbAT1-deficient bloodstream form of Trypanosoma brucei brucei to IC50 for wild-type bloodstream form of Trypanosoma brucei brucei s427
Format: functional
assay.endpoint: Ratio IC50
Output: the number by itself.

> print(dat)
                                 mol.smiles  measurement
1  N=C(N)Nc1cccc(CN2C(=O)[C@H](Cc3ccccc3)N=C(c3ccccc3)c3ccccc32)c1         1.45
2  N=C(N)Nc1cccc(CN2C(=O)[C@H](Cc3ccccc3)N=C(C3CCCCC3)c3ccccc32)c1         1.53
3  O=C1Nc2ccccc2C(c2ccccc2)=N[C@H]1Cc1ccccc1         0.57

[in] Return Ratio IC50 (reported value) for this molecule: N=C(N)Nc1ccc(CN2C(=O)[C@H](Cc3ccccc3)N=C(c3ccccc3)c3ccccc32)cc1
[out] 1.29

# credit: ChEMBL document CHEMBL1681683
